Hey, just so you know, these numbers are from patent US7919584B1.

Target: T1, GST-GORASP1 (PDZ #1) fusion protein (human, UniProt P08515 1-218 = GST)
T1 construct: also called GORASP1 d1; GRASP1; not shown: short vector-encoded linker (Gly-Ile, Gly-Ile-Pro-Gly-Asn or Gly-Ile-Pro, by cloning site); which one in this construct
T1 sequence (P08515 1-218, tags or fused parts left off): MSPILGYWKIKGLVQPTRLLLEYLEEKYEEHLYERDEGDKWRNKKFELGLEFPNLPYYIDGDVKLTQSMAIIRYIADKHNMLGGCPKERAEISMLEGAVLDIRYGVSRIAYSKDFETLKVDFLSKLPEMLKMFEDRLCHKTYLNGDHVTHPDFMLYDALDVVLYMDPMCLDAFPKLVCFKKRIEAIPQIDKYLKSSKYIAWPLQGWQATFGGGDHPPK
Test: modified G assay, peptide titrated against a constant amount of immobilized GST-PDZ fusion; Hill fit
Ends that are not written are not given here. * marks the point of attachment. Biotin = O=C1N[C@H]2[C@H](CS[C@H]2CCCCC(=O)*)N1
measure: pEC50
Scale explanation: pEC50 corresponds to minus log10 of a concentration expressed in moles per litre.

[Q] Tell me its pEC50 given Biotin-YGRKKRRQRRRIGELQLSIA (Synthetic peptide, HPLC purified; pre-mixed with HRP-streptavidin in the modified G assay; also called Tat-hCLCA1 (SIA)) as the entry.
[A] 6.92
